Data credit: patent US20220315578A1

measured_target: BRD9-GFP (Homo sapiens)
Construct: CHYSEL (2A cis-acting hydrolase element) remnant after GFP; mCherry is split off as a separate protein (C); expressed in transfected cells; host or cells: HEK293A cells (Invitrogen R70507), lentiviral transduction with pLenti6-BRD9-GFP-CHYSEL-mCherry, blasticidin selection
Sequence (Q9H8M2 1-597): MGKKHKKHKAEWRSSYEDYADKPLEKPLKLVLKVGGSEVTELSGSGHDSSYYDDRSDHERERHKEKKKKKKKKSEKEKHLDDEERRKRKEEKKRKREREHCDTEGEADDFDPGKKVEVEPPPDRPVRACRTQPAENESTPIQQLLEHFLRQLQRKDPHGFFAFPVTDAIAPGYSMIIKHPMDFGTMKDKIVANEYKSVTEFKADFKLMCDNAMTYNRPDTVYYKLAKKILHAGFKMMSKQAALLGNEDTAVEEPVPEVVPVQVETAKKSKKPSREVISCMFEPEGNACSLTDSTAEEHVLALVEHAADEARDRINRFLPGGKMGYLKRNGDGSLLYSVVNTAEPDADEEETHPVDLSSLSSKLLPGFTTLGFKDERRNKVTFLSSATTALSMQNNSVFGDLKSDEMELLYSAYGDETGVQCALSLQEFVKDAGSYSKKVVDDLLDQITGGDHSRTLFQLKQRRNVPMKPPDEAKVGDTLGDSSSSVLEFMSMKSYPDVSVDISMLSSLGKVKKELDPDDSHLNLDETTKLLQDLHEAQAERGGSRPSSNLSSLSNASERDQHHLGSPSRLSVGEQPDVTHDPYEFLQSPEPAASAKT
method_description: BRD9-GFP protein abundance flow cytometry assay in HEK293A cells
Type: cell-based
measurement_context: HEK293A-BRD9-GFP-CHYSEL-mCherry cells, 24 h; % protein remaining at the concentration at which maximum degradation is seen
Catalogue of compounds with associated BRD9 Deg Amax %

>  <compound>
CCCn1cc(-c2cc(F)c(CCN3CCC(OC4CCN(C(=O)c5ccc(Cl)c(N6CCC(=O)NC6=O)c5)CC4)CC3)c(OC)c2)c(C)c(C)c1=O [Compound E52]

>  <BRD9 Deg Amax % [%]>
14.99

$$$$
>  <compound>
CCCCn1cc(-c2cc(F)c(O[C@@H]3CCN(CCC4CCN(C(=O)c5ccc(OC)c(N6CCC(=O)NC6=O)c5)CC4)C[C@H]3F)c(F)c2)c2ccncc2c1=O [Compound E14]

>  <BRD9 Deg Amax % [%]>
18.10

$$$$
>  <compound>
CCCCn1cc(-c2ccc(O[C@H]3CCN(CC4CCN(C(=O)c5ccc(OC)c(N6CCC(=O)NC6=O)c5)CC4)C[C@@H]3F)cc2)c2ccncc2c1=O [Compound E31]

>  <BRD9 Deg Amax % [%]>
16.43

$$$$
